The reported measurements were obtained from PubChem BioAssay (NCI).

Test: NCI Yeast Anticancer Drug Screen. Data for the bub3 strain (AID 167)
Conditions: S. cerevisiae bub3 mutant strain, at 50.0 µM
Compounds without any hit were thinned out: in the full panel of roughly 79,000, 15% have a hit. The source made the active and inactive calls. No stated cut-off is given here; in the data, active means growth inhibition above about 70%; inactive means the rest.
One label from this list, please: active, inactive

CNc1nc(C(F)(F)F)nc2[nH]ncc12 : inactive
CC(C)c1ccc(/C=C2/CCCCC2=O)cc1 : inactive

Per the assay record, what outcome was assigned to CCCCCCCCCCCCCCCC/C(C(=O)OC)=C(/O)C(=O)OCC ?
inactive

Per the assay record, what outcome was assigned to CCCCCCCC/C=C\CCCCCCCC(=O)OCCN(CCOC(=O)CCCCCCC/C=C/CCCCCCCC)C(=O)COC(=O)CCCCCCC/C=C\CCCCCCCC ?
inactive

Per the assay record, what outcome was assigned to O=C(O)CCC(=O)NC(c1ccccc1)(c1ccccc1)c1ccccc1 ?
inactive

Per the assay record, what outcome was assigned to O=C(N/N=C\c1cccnc1)Nc1ccc(N=Nc2ccccc2)cc1 ?
inactive

Per the assay record, what outcome was assigned to O=[N+]([O-])c1ccc(S(=O)c2ccc(Cl)cc2)c2c1no[n+]2[O-] (centres undefined) ?
active

Per the assay record, what outcome was assigned to C[Si](C)(C)O[Si](C)(C)CCl ?
inactive

Per the assay record, what outcome was assigned to COC1C(/C=[N+](\C)[O-])OC2OC(C)(C)OC21 (centres undefined) ?
inactive

Per the assay record, what outcome was assigned to CC(C)NC(=O)OCc1cn2c(c1COC(=O)NC(C)C)CCC2 ?
inactive

Per the assay record, what outcome was assigned to CCOC(=O)Cn1c(=O)c2ccccc2c2cc([N+](=O)[O-])ccc21 ?
inactive

Per the assay record, what outcome was assigned to CCOCCOc1nc(C)cc(C)c1C#N ?
inactive

Per the assay record, what outcome was assigned to O=C1CCCN(Cc2ccccc2)C1 ?
inactive

Per the assay record, what outcome was assigned to O=C(Nc1ccc([N+](=O)[O-])cc1)N(c1ccccc1)c1cc(N2CCOCC2)ccn1 ?
inactive
